- assaySummary: AUC (0-infinity) in dog at 1 mg/kg, iv
- Type: ADME, organism-based, Canis lupus familiaris
- Set-up: dose 1 mg/kg, route intravenous, time infinity
- setupConditions: plasma
measurementKind: AUC(0-inf) (ng·h/mL)
Numbers only, in ng·h/mL.

Looking up CC(=O)Nc1nc2c(Oc3cc(-c4ccc(C(F)(F)F)cc4)ncn3)cccc2s1 , I found its AUC(0-inf) recorded as 7400

###

- assaySummary: Clearance in dog at 1 mg/kg, iv
- Format: ADME, organism-based, Canis lupus familiaris
- Design: dose 1 mg/kg, route intravenous
- setupConditions: in vivo
measurementKind: clearance (mL/min/kg)
Answers are plain numbers, in mL/min/kg.

Looking up CC(=O)Nc1nc2c(Oc3cc(-c4ccc(C(F)(F)F)cc4)ncn3)cccc2s1 [AMG-517] , I found its clearance recorded as 2.33

###

Could you please report measured half-life for the items listed next?
- assaySummary: Half life in Sprague-Dawley rat at 1 mg/kg, iv
- Type: ADME, organism-based
- Set-up: dose 1 mg/kg, route intravenous
- setupConditions: in vivo
Returns: string containing the numeric result and its unit.

CC(=O)Nc1nc2c(Oc3cc(-c4ccc(C(F)(F)F)cc4)ncn3)cccc2s1 [AMG-517]
6.3 h

Looking up Nc1nc2c(Oc3cc(-c4ccc(C(F)(F)F)cc4)ncn3)cccc2[nH]c1=O , I found its half-life recorded as 6 h

###

Could you please report measured microsomal CLint for the items listed next?
- assaySummary: Metabolic stability in human liver microsomes assessed as clearance
- Type: ADME, Microsome

// solved cases for microsomal CLint follow
Nc1nc2c(Oc3cc(-c4ccc(C(F)(F)F)cc4)ncn3)cccc2[nH]c1=O
< 14 µL/min/mg
Nc1cnc2cccc(Oc3cc(-c4ccc(C(F)(F)F)cc4)ncn3)c2n1
< 14 µL/min/mg
Nc1nc2c(Oc3cc(-c4ccc(C(F)(F)F)cc4)ncn3)cccc2s1
< 5 µL/min/mg

Here is another compound to look at.
Looking up CC(=O)Nc1nc2c(Oc3cc(-c4ccc(C(F)(F)F)cc4)ncn3)cccc2s1 , I found its microsomal CLint recorded as < 5 µL/min/mg

###

- assaySummary: Bioavailability in dog at 1 mg/kg, po
- Assay type: ADME, organism-based, Canis lupus familiaris
- setupConditions: in vivo
measurementKind: bioavailability
Returns: string containing the numeric result and its unit.

Looking up CC(=O)Nc1nc2c(Oc3cc(-c4ccc(C(F)(F)F)cc4)ncn3)cccc2s1 , I found its bioavailability recorded as 23%

###

- studySystem: Transient receptor potential cation channel subfamily V member 1 (Homo sapiens)
- assaySummary: Antagonist activity at human TRPV1 expressed in CHO cells assessed as inhibition of heat-induced calcium influx
- Type: functional, cell-based
measurementKind: IC50 (nM)
Answers are plain numbers, in nM.

CC(=O)Nc1nc2c(Oc3cc(-c4ccc(C(F)(F)F)cc4)ncn3)cccc2s1 [AMG-517]
1.3

Looking up Nc1nc2c(Oc3cc(-c4ccc(C(F)(F)F)cc4)ncn3)cccc2[nH]c1=O , I found its IC50 recorded as 0.4

###

- studySystem: Transient receptor potential cation channel subfamily V member 1 (Homo sapiens, UniProt Q8NER1)
- Sequence (Q8NER1 whole entry): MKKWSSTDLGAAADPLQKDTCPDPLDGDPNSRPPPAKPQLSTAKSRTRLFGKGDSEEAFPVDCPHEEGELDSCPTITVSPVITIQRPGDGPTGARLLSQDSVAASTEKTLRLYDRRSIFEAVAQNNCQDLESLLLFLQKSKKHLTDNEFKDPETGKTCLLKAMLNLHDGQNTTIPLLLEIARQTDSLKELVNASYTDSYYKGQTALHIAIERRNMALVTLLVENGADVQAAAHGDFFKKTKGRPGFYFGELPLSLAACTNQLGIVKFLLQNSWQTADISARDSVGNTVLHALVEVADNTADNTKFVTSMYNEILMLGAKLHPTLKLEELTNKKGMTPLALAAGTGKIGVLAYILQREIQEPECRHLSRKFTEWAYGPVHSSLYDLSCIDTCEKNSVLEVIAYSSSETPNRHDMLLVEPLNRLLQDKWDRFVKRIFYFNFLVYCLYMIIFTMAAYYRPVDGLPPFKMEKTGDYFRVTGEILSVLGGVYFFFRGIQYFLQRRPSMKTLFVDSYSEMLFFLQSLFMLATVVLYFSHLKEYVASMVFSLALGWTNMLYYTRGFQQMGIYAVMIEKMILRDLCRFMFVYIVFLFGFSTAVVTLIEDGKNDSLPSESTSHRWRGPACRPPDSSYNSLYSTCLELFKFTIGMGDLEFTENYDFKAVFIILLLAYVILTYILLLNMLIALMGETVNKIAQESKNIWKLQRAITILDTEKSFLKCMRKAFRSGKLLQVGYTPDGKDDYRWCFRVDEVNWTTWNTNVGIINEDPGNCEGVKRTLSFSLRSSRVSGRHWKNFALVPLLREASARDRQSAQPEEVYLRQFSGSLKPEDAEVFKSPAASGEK
- assaySummary: Antagonist activity at human TRPV1 expressed in CHO cells assessed as inhibition of capsaicin-induced calcium influx
- Type: functional, cell-based
Could you please report measured IC50 for the items listed next?
Answers are plain numbers, in nM.

CC(=O)Nc1nc2c(Oc3cc(-c4ccc(C(F)(F)F)cc4)ncn3)cccc2s1
0.76

Here is another molecule to look at.
Looking up Nc1nc2c(Oc3cc(-c4ccc(C(F)(F)F)cc4)ncn3)cccc2[nH]c1=O , I found its IC50 recorded as 0.8

Data credit: ChEMBL document CHEMBL1145459
